system_name: ERBB4 (Homo sapiens, UniProt Q15303)
Sequence (Q15303 26-1308): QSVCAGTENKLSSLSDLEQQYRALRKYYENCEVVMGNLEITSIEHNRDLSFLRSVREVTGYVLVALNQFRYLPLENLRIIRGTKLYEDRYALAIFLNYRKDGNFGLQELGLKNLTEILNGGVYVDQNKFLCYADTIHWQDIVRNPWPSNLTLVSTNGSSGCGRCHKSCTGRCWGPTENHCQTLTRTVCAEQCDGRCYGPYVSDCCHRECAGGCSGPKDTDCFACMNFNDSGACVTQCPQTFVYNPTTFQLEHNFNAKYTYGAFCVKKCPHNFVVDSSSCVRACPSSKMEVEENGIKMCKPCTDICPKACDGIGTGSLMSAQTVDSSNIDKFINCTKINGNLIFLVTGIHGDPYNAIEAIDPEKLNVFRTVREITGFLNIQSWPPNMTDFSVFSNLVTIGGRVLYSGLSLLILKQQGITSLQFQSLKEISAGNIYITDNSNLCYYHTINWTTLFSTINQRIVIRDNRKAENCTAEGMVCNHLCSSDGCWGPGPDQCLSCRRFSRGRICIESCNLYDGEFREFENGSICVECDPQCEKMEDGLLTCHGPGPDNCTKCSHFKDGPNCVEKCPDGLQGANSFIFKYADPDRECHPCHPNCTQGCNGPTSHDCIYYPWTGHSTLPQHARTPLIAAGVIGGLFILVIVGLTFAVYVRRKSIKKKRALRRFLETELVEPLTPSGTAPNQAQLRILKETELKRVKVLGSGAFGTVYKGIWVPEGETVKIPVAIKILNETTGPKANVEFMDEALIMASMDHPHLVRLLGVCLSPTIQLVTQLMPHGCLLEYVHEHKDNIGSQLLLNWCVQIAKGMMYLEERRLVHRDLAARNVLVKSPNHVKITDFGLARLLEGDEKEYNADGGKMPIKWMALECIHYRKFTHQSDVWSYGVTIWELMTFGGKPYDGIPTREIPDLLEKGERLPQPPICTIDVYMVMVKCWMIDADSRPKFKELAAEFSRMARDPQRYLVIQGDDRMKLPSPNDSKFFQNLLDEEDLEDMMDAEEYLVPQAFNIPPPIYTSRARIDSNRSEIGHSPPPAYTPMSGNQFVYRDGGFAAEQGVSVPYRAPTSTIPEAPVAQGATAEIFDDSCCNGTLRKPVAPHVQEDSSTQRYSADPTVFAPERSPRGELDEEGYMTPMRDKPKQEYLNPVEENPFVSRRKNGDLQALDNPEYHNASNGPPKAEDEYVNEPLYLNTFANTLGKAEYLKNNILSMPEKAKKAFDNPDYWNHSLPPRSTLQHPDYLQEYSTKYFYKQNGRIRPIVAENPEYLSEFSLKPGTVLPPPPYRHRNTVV
measurement_notes: scanMAX binding POC, ERBB4
test_conditions: 1 μM
ERBB4 binding POC listing for selected compounds.

Here's what some known entries look like.
C=CC(=O)N1CCC([C@@H]2CCNc3c(C(N)=O)c(-c4ccc(Oc5ccccc5)cc4)nn32)CC1 [Zanubrutinib] ... 0.75% of control
C=CC(=O)N1CCC[C@@H](n2nc(-c3ccc(Oc4ccccc4)cc3)c3c(N)ncnc32)C1 [Ibrutinib] ... 0% of control
C=CC(=O)N1CCC[C@@H](c2ccc(C(N)=O)c3[nH]ccc23)C1 [Elsubrutinib] ... 91% of control
COc1ccc(F)cc1C(=O)NCc1ccc(-c2nn([C@@H](C)C(F)(F)F)c(N)c2C(N)=O)cc1 [Pirtobrutinib] ... 2% of control
C=CC(=O)N(C)CCOc1c(N)ncnc1-c1cc(F)cc(NC(=O)c2ccc(C3CC3)cc2F)c1C [Remibrutinib] ... 100% of control
C=CC(=O)N1CCC(c2ccc(C(N)=O)c(-c3ccc(Oc4ccccc4)cc3)n2)CC1 [Orelabrutinib] ... 96% of control

Under ERBB4 (Homo sapiens, UniProt Q15303): ERBB4 binding POC value of O=C(c1ccc(Oc2ccccc2)cc1Cl)c1c[nH]c2ncnc(N[C@@H]3CC[C@@H](CO)OC3)c12 [Nemtabrutinib] ?
0.35% of control

Follow-up item: C=CC(=O)N1CCC(CNc2ncnc(N)c2-c2ccc(Oc3ccccc3)cc2)CC1 [Evobrutinib]
32% of control

Follow-up item: CC#CC(=O)N[C@H]1CCCN(c2c(F)cc(C(N)=O)c3[nH]c(C)c(C)c23)C1 [Branebrutinib]
75% of control
